- Test system: M14
- PROCEDURE TEXT: NCI tumour cell line growth inhibition, 48 h
The source made the active and inactive calls. Rule as the data show it: active = GI50 up to about 1.1 µM and inactive = higher.
Hi there, use one of these labels in your reply, thanks! active, inactive

These solved cases illustrate the format of a correct answer.
1) CCCC(=O)OC1=C(c2ccccc2)Sc2ccccc2-n2cccc21: inactive
2) Cc1nc2ccccc2nc1CC(=O)C(=O)Nc1ccc(Cl)cc1Cl: inactive
3) CC[C@@]1(O)C[C@H](OC2CC(N(C)C)C(O)C(C)O2)c2c(O)c3c(c(O)c2[C@H]1OC1CC(N(C)C)C(O)C(C)O1)C(=O)c1cccc(O)c1C3=O (stereo partly drawn): active

How did this test come out for COc1ccc(CCCNC(=O)Cc2ccccc2CO)cc1OC ? inactive

How did this test come out for O=S1(=O)OCCOS(=O)(=O)C1Cl ? inactive

How did this test come out for C1=Cc2cccc3occ(c23)C=C1 ? inactive

How did this test come out for Nc1ccc(-c2ncc3cc(-c4cccc(-c5cc6cnc(-c7ccc(N)cc7)nc6c6ccccc56)c4)c4ccccc4c3n2)cc1 ? inactive

How did this test come out for CC12CC(=O)NN=C1c1ccccc1C2 (stereo not drawn) ? inactive

How did this test come out for CCOC(=O)C1=C(C)C(C(=O)OC)/C(=C/c2cccc3cccnc23)C1=O (stereo not drawn) ? inactive

How did this test come out for COc1ccc(OC)c(C2CCCc3c2cnc2nc(N)nc(N)c32)c1 (stereo not drawn) ? active

How did this test come out for CC1=C(C(=O)OC(C)C)C(c2cccc([N+](=O)[O-])c2)C(C(=O)OC(CO[N+](=O)[O-])CO[N+](=O)[O-])=C(C)N1 (stereo not drawn) ? inactive

How did this test come out for O=C1Nc2cccc(C(F)(F)F)c2/C1=N/Nc1ccccc1[N+](=O)[O-] ? inactive

How did this test come out for Cc1nc2c(=O)n(-c3ccccc3)c(=O)n(-c3ccccc3)c2o1 ? inactive

How did this test come out for O=C1NC(=S)NC(=O)C1=Cc1ccc[nH]1 ? inactive

How did this test come out for CCC/C(=N\NC(=O)c1cc2ccccc2cc1O)C(CC)C(=O)CCC(=O)N(Cc1ccccc1)Cc1ccccc1 (stereo not drawn) ? inactive

How did this test come out for CN(C)c1ccc(C=C2C(=O)NC(=S)NC2=O)c2ccccc12 ? inactive

How did this test come out for O=[N+]([O-])c1ccc(C2=Nn3cnnc3SC2)o1 ? inactive

How did this test come out for N#CCc1nc(-c2cc3ccccc3oc2=O)cs1 ? inactive

How did this test come out for COc1ccc(/C(=N/O)C(c2ccc(OC)cc2)C2C(=O)Oc3ccccc32)cc1 (stereo not drawn) ? inactive

====

Quick reference: GI50 of the listed items.
- Tested on: LOX IMVI
- PROCEDURE TEXT: NCI tumour cell line growth inhibition, 48 h
The source made the active and inactive calls. Cut-off read from the data, not from the text of the source: active = GI50 up to about 1.1 µM and inactive = higher.

1) O=[N+]([O-])c1ccc(C2=Nn3cnnc3SC2)o1: 2.06 µM (inactive)
2) COc1ccc(-c2c3ccccc3c(-c3ccc(OC)cc3)c3ccccc23)cc1: > 100 µM (inactive)

Recorded GI50 for O=C(Cn1c(=O)oc2ccc(C(=O)c3ccccc3Cl)cc21)c1ccc([N+](=O)[O-])cc1 , please? 17 µM (inactive)

Recorded GI50 for O/N=C1/C(=C/c2ccc(OCc3ccccc3)cc2)CCCC1C(NO)c1ccc(OCc2ccccc2)cc1 (centres undefined) , please? 4.05 µM (inactive)

Recorded GI50 for CN(C)Cc1cc(/C(=C(\C#N)c2ccccc2)c2ccc(O)cc2)ccc1O , please? 12.1 µM (inactive)

Recorded GI50 for O=C(O)[C@H](NS(=O)(=O)c1ccc(F)cc1)c1ccccc1 , please? > 100 µM (inactive)

====

Quick reference: GI50 of the listed items.
- Test system: OVCAR-8
- PROCEDURE TEXT: NCI tumour cell line growth inhibition, 48 h
The source made the active and inactive calls. Cut-off read from the data, not from the text of the source: active = GI50 up to about 1.1 µM and inactive = higher.

// solved cases for GI50 follow
1) COc1cc(OC)nc(-n2c(N)c(C#N)c3ccc([N+](=O)[O-])cc3c2=O)n1: > 100 µM (inactive)
2) Nc1ccc(-c2ncc3cc(-c4cccc(-c5cc6cnc(-c7ccc(N)cc7)nc6c6ccccc56)c4)c4ccccc4c3n2)cc1: > 100 µM (inactive)
3) COc1cc2ccc1-c1cc(ccc1O)CC1c3cc4c(cc3CCN1C)Oc1c(OC)cc3c(c1O4)C(C2)N(C)CC3 (stereo not drawn): 1.87 µM (inactive)
4) Cc1cc(S(=O)(=O)N2CCNNC2=O)c(S)cc1Cl: > 100 µM (inactive)
5) COc1ccc2nc(/C(N)=C\C#N)ccc2c1: 36.8 µM (inactive)
6) Cc1nc2ccccc2nc1CC(=O)C(=O)Nc1ccc(Cl)cc1Cl: > 100 µM (inactive)
7) O=C1NC(=O)c2c1n(Cc1ccccc1)c(=O)n2Cc1ccccc1: > 100 µM (inactive)
8) COc1cc(C=O)ccc1Oc1nnnn1-c1ccccc1: 66.2 µM (inactive)

Recorded GI50 for Cc1cc(NS(=O)(=O)c2ccc(NC(=O)c3cccc4c(NNc5ccc(S(N)(=O)=O)cc5)c5ccccc5nc34)cc2)no1 , please? 47.9 µM (inactive)

Recorded GI50 for CCOC(=O)[C@@]12CCC(C1=O)[C@](C)(O)C[C@@H]2c1ccccc1 , please? 54.8 µM (inactive)

Recorded GI50 for CCOc1c(OC)cc(CNNc2nccs2)cc1OC , please? > 100 µM (inactive)

Recorded GI50 for CNC(=O)OCc1nc([S+](C)[O-])n(C)c1COC(=O)NC (stereo not drawn) , please? > 100 µM (inactive)

Recorded GI50 for NC1N=C(c2ccc(Cl)cc2)C2=C(N1)c1ccccc1CC2 (stereo not drawn) , please? 25.6 µM (inactive)

====

- System: A549
- PROCEDURE TEXT: NCI tumour cell line growth inhibition, 48 h
Calls of active or inactive are those of the source. No stated cut-off is given here; in the data, active = GI50 up to about 1.1 µM and inactive = higher.
Hi there, use one of these labels in your reply, thanks! 1.0 for active, 0.0 for inactive

1. O=C(Nc1c(Cl)cccc1Cl)c1c(Cl)c(Cl)c(Cl)c(Cl)c1-c1nc2ccccc2[nH]1: 1.0
2. CC[C@@]1(O)C(=O)OCc2c1cc1n(c2=O)Cc2c-1nc1ccccc1c2Cl: 1.0
3. Cc1cc(S(=O)(=O)N2CCNNC2=O)c(S)cc1Cl: 0.0
4. Cn1c(=O)c2[nH]c(-n3nc(-c4ccccc4)cc3N)nc2n(C)c1=O: 0.0
5. O=S1(=O)OCCOS(=O)(=O)C1(F)Br: 0.0
6. COc1ccccc1N1C(=O)/C(=C\c2cc(OC)c(OC)c(OC)c2)S(=O)(=O)C1c1ccccc1 (configuration not stated): 0.0
7. O=c1c(Nc2ccccc2)cn(CCOc2ccc(Cl)cc2)c(=O)n1CCOc1ccc(Cl)cc1: 0.0
8. COc1ccc2c3c(ccc2c1)NC(C(=O)O)CC3 (configuration not stated): 0.0
9. COc1ccc(C(=O)/C=C2\Nc3cccnc3N\C2=C/C(=O)c2ccc(OC)cc2)cc1: 0.0
10. O/N=C1/C(=C/c2ccc(OCc3ccccc3)cc2)CCCC1C(NO)c1ccc(OCc2ccccc2)cc1 (configuration not stated): 0.0

How did this test come out for Cc1cccc(-n2c(N)c(-c3nc4ccccc4[nH]3)sc2=S)c1 ? 0.0

How did this test come out for C=C1C(=O)O[C@H]2C1[C@H](OC(=O)/C(C)=C\COC(C)=O)C[C@]1(CO1)[C@@H]1[C@H](O)[C@H]3O[C@@]3(C)[C@@H]12 (some centres not stated) ? 0.0

How did this test come out for C1CCC(CC2CCC(NC3=NCCO3)CC2)CC1 (configuration not stated) ? 0.0

How did this test come out for C=C[Si](C)(C)COC(=O)/C(C#N)=C/C=C/c1ccccc1 ? 0.0

How did this test come out for COc1cc2cccc(/N=C\c3cccc(OC)c3OC(C)C)c2cc1OC ? 0.0

How did this test come out for COc1ccc(/C=N/NC(=O)c2ccccc2Nc2ccccc2C(=O)N/N=C/c2ccc(OC)cc2)cc1 ? 0.0

How did this test come out for COc1ccc(CC2C(=O)NC(C)C(=O)N(C)C3C(=O)N(C)C(Cc4ccc(O)c(c4)Oc4ccc(cc4)C3O)C(=O)NC(C)C(=O)NC(C)C(=O)N2C)cc1 (configuration not stated) ? 1.0

How did this test come out for COc1ccc(Cc2ccc3nc(O)cc(C)c3c2)cc1S(=O)(=O)O ? 0.0

How did this test come out for COC(=O)c1c(O)ccc2c1c1c(n2CCc2ccccc2)C(=O)c2ccccc2C1 ? 0.0

How did this test come out for Cc1noc(/N=C2\C=C(O)C(=O)c3ccccc32)c1C ? 0.0

How did this test come out for Cc1ccccc1N/C(=C(/C(Cl)=C(Cl)Cl)[N+](=O)[O-])n1nnc2ccccc21 ? 0.0

How did this test come out for Nc1n[n+](-c2ccccc2)no1 ? 0.0

====

- Tested on: SNB-75
- PROCEDURE TEXT: NCI tumour cell line growth inhibition, 48 h
The source made the active and inactive calls. Rule as the data show it: active = GI50 up to about 1.1 µM and inactive = higher.
MEASURED ENDPOINT: GI50

// solved cases for GI50 follow
1) c1ccc(-c2cnc3nc4ccccc4nc3n2)cc1: 2.66 µM (inactive)
2) COc1cc(OC)c([C@@H]2OC(=O)C3C2C(=O)O[C@H]3c2cc(OC)c(OC)cc2OC)cc1OC (stereo partly drawn): > 100 µM (inactive)
3) C=C(C[N+](C)(C)C)N/N=C/c1oc(-c2ccc(OC)c(OC)c2)c(-c2ccc(OC)c(OC)c2)c1[N+](=O)[O-]: 19.4 µM (inactive)
4) CNc1nnc(CCCCCCCCc2nnc(NC)o2)o1: > 100 µM (inactive)
5) Cc1nc(N)nc(N)c1N1CCN(Cc2ccccc2)CC1: > 52.5 µM (inactive)

Recorded GI50 for C=C1C(OC)=C(OC)C(=O)c2[nH]c3c(OC)cc([N+](=O)[O-])cc3c21 , please? 39.1 µM (inactive)

Recorded GI50 for COc1cc2c(cc1OC)C(N)CC2=O (stereo not drawn) , please? > 100 µM (inactive)

Recorded GI50 for CC1=NOC2(C1)/C(=N/O)CCC/C2=N\O (stereo not drawn) , please? > 100 µM (inactive)

Recorded GI50 for Cc1c(-c2nc(N)c(C#N)c(N)c2C#N)c(=O)oc2ccccc12 , please? > 100 µM (inactive)
